Just for reference, PubChem BioAssay (NCI) is where these values come from.

Tested on: HT29 colon
Measurement Protocol: NCI-60 one-dose screen, 48 h (100 = growth as untreated, 0 = no growth, -100 = all killed)
Condition Parameters: 10 µM unless noted
This is part of a sample that, as a whole, favours compounds with a hit. Of some 83,000 tested, about 20% had one in any assay.
Measured Endpoint: growth (%)
One number for each entry, in %.

Example cases with answers are listed next.
NC(=O)c1cccc(-n2ccc3cc(NC(=O)Nc4ccc(Cl)c(Cl)c4)ccc32)n1; 60.9
COc1ccc(-c2[nH]ncc2Nc2cc(OC)c(OC)c(OC)c2)cc1; 26.2
CCN1CCN(c2nc3ccccc3c3c(=O)c4cc(F)ccc4sc23)CC1; 28
CCOC(=O)C1=C(C)N2C(=NC3=C(CCCC/C3=C\c3ccccc3)C2c2ccccc2)S1 (stereo not given); 84.4

// switching to the query molecule
### Prompt Request the reported growth associated with CC(=O)OC[C@]1(C)C=C2C(=O)[C@](C)(O)C3(CC3)C(C)=C2[C@H]1OC(C)=O
### Response 69.9
